- target.under.test: HIV-1 protease (Human immunodeficiency virus type 1 group M subtype B)
- Construct: purified HIV-1 protease
- assay.comment: biochemical
- Assay type: biochemical
- condition.label: at 200 (μM)
reported.metric: percent (inhibition) (%)

| molecule | percent (inhibition) (%) |
| --- | --- |
| CC(=O)N1CCc2ccc(CC(O)CCc3ccc4ccccc4c3C(=O)NC(C)(C)C)c(C(=O)N(C)C(C)(C)C)c2C1 (stereo not shown) [Example 63] | 40 |
| CC(C)(C)NC(=O)c1ccccc1CC(O)CSc1ccc([N+](=O)[O-])cc1C(=O)NC(C)(C)C (stereo not shown) [Example 43] | 20 |
| CC(C)(C)NC(=O)c1ccccc1CC(O)CSc1ccc(N)cc1C(=O)NC(C)(C)C (stereo not shown) [Example 44] | 20 |
| CC(C)(C)NC(=O)c1ccccc1/C=C\C(O)Cc1ccccc1C(=O)NC(C)(C)C (stereo not shown) [Example 27] | 40 |
| CC(C)(C)NC(=O)c1ccccc1CCC(O)C(O)CCc1ccccc1C(=O)NC(C)(C)C (stereo not shown) [Example 57] | 93 |

[P] CC(C)(C)NC(=O)c1ccccc1/C=C/C(O)Cc1ccccc1C(=O)NC(C)(C)C (stereo not shown) [Example 28]
[Q] CC(C)(C)NC(=O)c1ccccc1C(O)CSc1ccccc1NC(=O)C(C)(C)C (stereo not shown) [Example 21]
(Q) Select the item with the higher value of percent (inhibition) from the options P and Q listed. Indicate which entry you chose by stating its label.
(A) P
(P: 40%, Q: 10%)

* * *

- target.under.test: HIV-1 protease (Human immunodeficiency virus type 1 group M subtype B)
- Construct: purified HIV-1 protease
- assay.comment: biochemical
- Type: biochemical
- condition.label: 0.5M NaCl, 50 mM MES pH 5.6, 2% DMSO, 37° C., 200 μM substrate
pKi: −log10 of the molar value.
reported.metric: pKi

Field: example entries. Status: answers known.
| compound | pKi |
| --- | --- |
| CCSc1ccc(CC(O)CCc2ccccc2C(=O)N(CCO)C2(CC)CCCC2)c(C(=O)N(CCO)C(C)(C)c2ccccc2)c1 (stereo not drawn) [Example 99] | 7.82 |
| CC(C)(C)N(CCO)C(=O)c1ccccc1CCC(O)Cc1ccccc1C(=O)N(CCO)C12CCCCC1CCC2 (stereo not drawn) [Example 81] | 7.19 |
| CCC1(N(CC(CO)CO)C(=O)c2ccccc2CCC(O)Cc2ccc(C)cc2C(=O)N(CC(CO)CO)C(C)(C)c2ccccc2)CCCC1 (stereo not drawn) [Example 107] | 7.49 |

[a] CC(C)(C)N(CCO)C(=O)c1ccccc1CCC(O)Cc1ccccc1C(=O)N(CCO)C(C)(C)c1ccc2ccccc2c1 (stereo not drawn) [Example 66]
[b] CC(C)(C)N(CCO)C(=O)c1ccccc1CCC(O)Cc1ccccc1C(=O)N(c1ccccc1)C(C)(C)C (stereo not drawn) [Example 68]
[c] CCC1(N(CCO)C(=O)c2ccccc2CCC(O)Cc2ccc(C)cc2C(=O)N(CCO)C(C)(C)c2ccc(OCc3ccc[n+]([O-])c3)cc2)CCCC1 (stereo not drawn) [Example 111]
[d] CC(C)(C)NC(=O)c1cc(Sc2ccccc2)ccc1CCC(O)Cc1ccccc1C(=O)N(CCO)C(C)(C)C (stereo not drawn) [Example 73]
(Q) Ascending by pKi, please: list the compounds accordingly. # respond with the labels, arranged in the requested order
(A) b, d, a, c
(b: 5.24, d: 6.14, a: 6.84, c: 8.10)

[A] CC(C)(C)N(CCO)C(=O)c1ccccc1CCC(O)Cc1ccccc1C(=O)N(Cc1ncc[nH]1)C(C)(C)c1ccccc1 (stereo not drawn) [Example 72]
[B] CC(C)(C)NC(=O)c1cc(C(C)(C)C)ccc1CCC(O)Cc1ccccc1C(=O)N(CCO)C(C)(C)C (stereo not drawn) [Example 35]
[C] CCC1(N(CC2COC(C)(C)OC2)C(=O)c2ccccc2CCC(O)Cc2ccc(C)cc2C(=O)N(CC2COC(C)(C)OC2)C(C)(C)c2ccccc2)CCCC1 (stereo not drawn) [Example 106]
(Q) Please rank these compounds by pKi in descending order. # respond with the labels, arranged in the requested order
(A) C, A, B
(C: 8.41, A: 7.00, B: 6.08)

[1] Cc1ccc(CCC(O)Cc2ccccc2C(=O)N(CCO)C(C)(C)c2ccccc2)c(C(=O)N(CCO)C(C)(C)C)c1 (stereo not drawn) [Example 62]
[2] CC(C)(C)N(CCO)C(=O)c1ccccc1CCC(O)Cc1ccccc1C(=O)N(CCO)C1(C)CCCC1 (stereo not drawn) [Example 5]
[3] CCC1(N(CCO)C(=O)c2ccccc2CCC(O)Cc2ccc(C)cc2C(=O)N(CC2COC(C)(C)OC2)C(C)(C)c2ccccc2)CCCC1 (stereo not drawn) [Example 102]
[4] Cc1ccc(CC(O)CCc2ccccc2C(=O)N(CCO)C(C)(C)C)c(C(=O)N(CCO)C(C)(C)c2ccccc2)c1 (stereo not drawn) [Example 74]
(Q) Please rank these compounds by pKi in descending order. # respond with the labels, arranged in the requested order
(A) 3, 4, 1, 2

[1] CCC1(N(CCOC(C)=O)C(=O)c2ccccc2CCC(O)Cc2ccc(C)cc2C(=O)N(CCOC(C)=O)C(C)(C)c2ccccc2)CCCC1 (stereo not drawn) [Example 110]
[2] CC(C)(C)NC(=O)c1c(CCC(O)Cc2ccc3ccccc3c2C(=O)N(CCO)C(C)(C)C)ccc2ccccc12 (stereo not drawn) [Example 14]
(Q) For the pair 1 and 2 , which entry has the numerically smaller recorded pKi? Indicate which entry you chose by stating its label.
(A) 2
(2: 5.27, 1: 8.27)

[P] Cc1ccc(CC(O)CCc2ccccc2C(=O)N(Cc2ccccc2)C(C)C)c(C(=O)N(CCO)C(C)(C)c2ccccc2)c1 (stereo not drawn) [Example 86]
[Q] CC(C)(C)N(CCO)C(=O)c1ccccc1CCC(O)Cc1ccccc1C(=O)N(CCO)C(C)(C)c1ccccc1 (stereo not drawn) [Example 91]
(Q) Select the item with the higher value of pKi from the options P and Q listed. Indicate which entry you chose by stating its label.
(A) Q

[1] CCC1(N(CCO)C(=O)c2ccccc2CCC(O)Cc2ccc(C)cc2C(=O)N(CCO)C(C)(C)c2ccc(OCc3cccnc3)cc2)CCCC1 (stereo not drawn) [Example 98]
[2] CC(C)(C)NC(=O)c1cc2ccccc2cc1CCC(O)Cc1ccccc1C(=O)N(CCO)C(C)(C)C (stereo not drawn) [Example 60]
(Q) For the pair 1 and 2 , which entry has the numerically smaller recorded pKi? Indicate which entry you chose by stating its label.
(A) 2

[P] CC(C)(C)N(CCO)C(=O)c1ccccc1CCC(O)Cc1ccccc1C(=O)N(CCOCc1ccccc1)C(C)(C)c1ccncc1 (stereo not drawn) [Example 76]
[Q] CC(C)(C)N(CCO)C(=O)c1ccccc1CCC(=O)C(F)(F)c1ccccc1C(=O)N(CCO)C(C)(C)c1ccccc1 [Example 78]
(Q) For the pair P and Q , which entry has the numerically smaller recorded pKi? Indicate which entry you chose by stating its label.
(A) P
(P: 6.04, Q: 6.49)

[1] Cc1cc(CC(O)CCc2ccccc2C(=O)N(CCO)C(C)(C)C)c(C(=O)N(CCO)C(C)(C)c2ccccc2)cc1C (stereo not drawn) [Example 90]
[2] Cc1ccc(CCC(O)Cc2ccccc2C(=O)N(CCOCc2ccccc2)C(C)(C)c2ccccc2)c(C(=O)N(CCO)C(C)(C)C)c1 (stereo not drawn) [Example 84]
[3] CC(C)(C)N(CCO)C(=O)c1ccccc1CCC(O)Cc1ccccc1C(=O)N(CCO)C(C)(C)Cc1ccccc1 (stereo not drawn) [Example 61]
(Q) Ascending by pKi, please: list the compounds accordingly. # respond with the labels, arranged in the requested order
(A) 3, 2, 1
(3: 5.90, 2: 6.50, 1: 6.75)
